Source listed as patent US20210040232A1.

Molecular target: T1, soluble Macaca fascicularis CTLA-4 expressed with a C-terminal myc-myc-polyhistidine tag (Macaca fascicularis)
T1 construct: soluble protein; also called mf CTLA-4.mmh; mfCTLA4.mmh
T1 chain: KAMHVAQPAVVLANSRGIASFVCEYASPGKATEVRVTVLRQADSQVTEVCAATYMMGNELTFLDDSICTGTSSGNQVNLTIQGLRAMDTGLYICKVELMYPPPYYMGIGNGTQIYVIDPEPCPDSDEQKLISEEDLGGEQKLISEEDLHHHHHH
Test: SPR, mAb capture, 25 C
Field 'label' (enum: true (1) / false (0)). Set to true (1) when t1/2 is strictly under 40 min; else false (0).

Task: Is it true that t1/2 reported for H1H19273P (antibody, human IgG1, V domains shown) VH: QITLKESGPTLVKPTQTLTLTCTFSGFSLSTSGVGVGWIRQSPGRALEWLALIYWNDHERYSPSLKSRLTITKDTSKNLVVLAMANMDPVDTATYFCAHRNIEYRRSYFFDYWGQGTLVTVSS VL: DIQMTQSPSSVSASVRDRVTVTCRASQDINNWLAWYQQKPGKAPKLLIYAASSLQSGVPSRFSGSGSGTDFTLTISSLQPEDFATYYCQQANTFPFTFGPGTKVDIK is less than 40 min?
Result: true (1)

Task: Please indicate whether the reported t1/2 of H1H19274P (antibody, human IgG1, V domains shown) VH: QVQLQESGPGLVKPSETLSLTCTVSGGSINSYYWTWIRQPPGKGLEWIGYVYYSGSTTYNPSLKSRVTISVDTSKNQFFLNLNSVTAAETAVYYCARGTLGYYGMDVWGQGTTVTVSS VL: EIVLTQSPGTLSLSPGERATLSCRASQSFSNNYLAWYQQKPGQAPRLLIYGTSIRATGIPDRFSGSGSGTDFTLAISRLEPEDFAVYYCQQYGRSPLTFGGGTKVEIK is strictly below 40 min.
Result: true (1)

Task: Could you please tell me whether t1/2 recorded for H1H19312P (antibody, human IgG1, V domains shown) VH: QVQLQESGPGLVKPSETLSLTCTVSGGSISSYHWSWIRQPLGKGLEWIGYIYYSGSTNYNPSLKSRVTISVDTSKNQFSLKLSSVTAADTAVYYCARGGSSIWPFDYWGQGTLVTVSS VL: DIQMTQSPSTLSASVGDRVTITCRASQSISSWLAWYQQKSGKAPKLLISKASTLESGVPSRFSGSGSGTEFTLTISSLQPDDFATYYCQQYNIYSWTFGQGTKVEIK is less than 40 min?
Result: true (1)

Task: Decide: t1/2 of H1H19269P (antibody, human IgG1, V domains shown) VH: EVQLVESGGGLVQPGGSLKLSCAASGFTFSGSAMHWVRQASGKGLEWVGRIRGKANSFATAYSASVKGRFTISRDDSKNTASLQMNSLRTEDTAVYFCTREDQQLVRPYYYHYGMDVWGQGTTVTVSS VL: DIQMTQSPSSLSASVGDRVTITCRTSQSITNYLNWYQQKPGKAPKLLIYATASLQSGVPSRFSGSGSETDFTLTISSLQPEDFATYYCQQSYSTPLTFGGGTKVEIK strictly below 40 min?
Result: true (1)

Task: Say whether its t1/2 is strictly beneath 40 min. Entry: H1H19280P (antibody, human IgG1, V domains shown) VH: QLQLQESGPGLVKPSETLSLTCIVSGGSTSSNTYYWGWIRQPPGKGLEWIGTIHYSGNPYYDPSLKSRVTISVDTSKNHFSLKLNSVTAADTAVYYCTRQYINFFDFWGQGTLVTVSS VL: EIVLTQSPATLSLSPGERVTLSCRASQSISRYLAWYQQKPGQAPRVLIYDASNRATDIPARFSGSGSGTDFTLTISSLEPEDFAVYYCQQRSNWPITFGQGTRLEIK
Result: true (1)

Task: Here's an entry: H1H19294P (antibody, human IgG1, V domains shown) VH: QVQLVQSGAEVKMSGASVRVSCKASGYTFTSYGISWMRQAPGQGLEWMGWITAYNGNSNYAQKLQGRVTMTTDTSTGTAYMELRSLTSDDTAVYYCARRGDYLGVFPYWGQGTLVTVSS VL: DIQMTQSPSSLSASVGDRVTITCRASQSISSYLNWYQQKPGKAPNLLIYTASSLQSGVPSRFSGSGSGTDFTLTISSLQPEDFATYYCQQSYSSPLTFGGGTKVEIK . Is its t1/2 below 40 min?
Result: false (0)
